Recorded herbicidal damage rating, Sida values for a group of compounds are listed next.
Test system: Monocotyledonous and dicotyledonous test plants
Assay: Example B1 herbicidal action, application post-emergence (Table B1a)
Format: in vivo
Conditions: Sida, 250 g/ha, evaluated after 3 weeks, scale 0-10
Protocol: Monocotyledonous and dicotyledonous test plants were sown in seed trays in standard soil. […] After a test duration of 3 weeks (post-emergence) or 4 weeks (pre-emergence), the test was evaluated (10=total damage to plant, 0=no damage to plant).
// return a plain number; no unit text

Completed entries (count: 5):
compound	herbicidal damage rating, Sida
COC(=O)C(Cl)(c1c(F)cccc1F)S(=O)(=O)C1=NOC(C)(C)C1 (stereo not drawn)	3
Cc1cccc(C(Cl)(Cl)S(=O)(=O)C2=NOC(C)(C)C2)c1	7
CC1(C)CC(S(=O)(=O)C(F)(F)c2ccccc2OC(F)(F)F)=NO1	4
CC1(C)CC(S(=O)(=O)C(Cl)c2cc(F)cc3c2OCOC3)=NO1 (stereo not drawn)	0
CCOC(=O)c1ccc(C(F)(F)S(=O)(=O)C2=NOC(C)(C)C2)c(F)c1	0

Query: Report measured herbicidal damage rating, Sida; entry is CC1(C)CC(S(=O)(=O)C(F)(F)c2cc(F)cc3c2OCOC3)=NO1
Response: 2

Query: Report measured herbicidal damage rating, Sida; entry is CC1(C)CC(S(=O)(=O)C(I)c2c(F)cccc2F)=NO1 (stereo not drawn)
Response: 4

Query: Report measured herbicidal damage rating, Sida; entry is CC1(C)CC(S(=O)(=O)C(F)(Cl)c2cc(F)cc(F)c2)=NO1 (stereo not drawn)
Response: 3
